The reported numbers originate from patent US20160324884A1.

Tested on: KK^Ay mice
assay method text: Glycemia in KK^Ay mice during treatment and after withdrawal (Example 3)
Type: in vivo
assay context: T2DM mice, 2 mg/kg, two weeks after subcutaneous injection
property name: descending rates of blood glucose (%)
Answer in %, number only, no unit symbol.

// solved cases for descending rates of blood glucose follow
Prompt: May I ask what descending rates of blood glucose has been recorded for CC(=O)OC1C(OC(=O)/C=C/c2ccc(C)cc2)C(C)OC(OC(=O)[C@]23CCC(C)(C)C[C@H]2C2C=C[C@@H]4[C@@]5(C)CC[C@H](OC6OC(C(=O)O)C(O)C(OC7OCC(O)C(O)C7O)C6OC6OC(CO)C(O)C(O)C6O)[C@@](C)(C=O)[C@@H]5CC[C@@]4(C)[C@]2(C)C[C@H]3O)C1OC1OC(C)C(O)C(O)C1O (stereo partly shown) [Compound (1), sinocrassuloside VI] ?
Response: 70

Prompt: Would you kindly share the measured descending rates of blood glucose for CC(=O)OC1C(OC(=O)/C=C\c2ccc(C)cc2)C(C)OC(OC(=O)[C@@H]2CC(C)(C)C[C@@H]3C2[C@H](O)C[C@]2(C)C3C=C[C@@H]3[C@@]4(C)CC[C@H](OC5OC(C(=O)O)C(O)C(OC6OCC(O)C(O)C6O)C5OC5OC(CO)C(O)C(O)C5O)[C@@](C)(C=O)[C@@H]4CC[C@]32C)C1OC1OC(C)C(O)C(O)C1O (stereo partly shown) [Compound (2), sinocrassuloside VII] ?
Response: 60

Prompt: Returns the measured descending rates of blood glucose for the input molecule. Input: COC(=O)C1OC(O[C@H]2CC[C@]3(C)[C@H]4C=CC5[C@@H]6CC(C)(C)C[C@@H](C(=O)OC7OC(C)C(OC(=O)/C=C/c8ccc(C)cc8)C(OC(C)=O)C7OC7OC(C)C(O)C(O)C7O)C6[C@H](O)C[C@@]5(C)[C@]4(C)CC[C@H]3[C@]2(C)C=O)C(OC2CC(CO)C(O)C(O)C2O)C(OC2OCC(O)C(O)C2O)C1O (stereo partly shown) [Compound (3), sinocrassuloside VIII]
Response: 60

Proceeding to the next molecule to report its descending rates of blood glucose.
Prompt: Please look up its descending rates of blood glucose: COC(=O)C1OC(O[C@H]2CC[C@]3(C)[C@H]4C=CC5[C@@H]6CC(C)(C)CC[C@]6(C(=O)OC6OC(C)C(OC(=O)/C=C\c7ccc(C)cc7)C(OC(C)=O)C6OC6OC(C)C(O)C(O)C6O)[C@H](O)C[C@@]5(C)[C@]4(C)CC[C@H]3[C@]2(C)C=O)C(OC2OC(CO)C(O)C(O)C2O)C(OC2OCC(O)C(O)C2O)C1O (stereo partly shown) [Compound (4), sinocrassuloside IX]
Response: 50
